assayed system: recombinant cGAS (aa147-522) (Homo sapiens, UniProt Q8N884)
Construct: recombinant cGAS (aa147-522); His6-SUMO (N, cleaved yes)
Sequence (Q8N884 147-522): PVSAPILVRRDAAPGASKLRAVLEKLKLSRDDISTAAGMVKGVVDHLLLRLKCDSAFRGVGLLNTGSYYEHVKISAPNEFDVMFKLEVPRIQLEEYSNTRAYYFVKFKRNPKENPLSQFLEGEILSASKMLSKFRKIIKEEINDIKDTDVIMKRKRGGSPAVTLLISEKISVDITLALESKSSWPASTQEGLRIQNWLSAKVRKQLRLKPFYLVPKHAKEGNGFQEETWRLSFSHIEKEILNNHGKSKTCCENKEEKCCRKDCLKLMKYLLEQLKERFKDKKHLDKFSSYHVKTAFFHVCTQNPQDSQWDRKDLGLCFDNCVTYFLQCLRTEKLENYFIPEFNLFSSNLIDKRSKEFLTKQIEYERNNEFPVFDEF
test summary: In vitro assay for inhibition of cGAS activity (ATP consumption, Kinase Glo)
setup conditions: 37° C. 20 minutes, read-out: Activity (Inhibition of cGAS enzyme activity in vitro, IC50)
endpoint label: IC50

Worked set:
# compound, IC50
records = [
    ("CN1C(=O)S/C(=C\\c2cc(OCc3cnc(N(C)C)nc3)c(O)cc2Br)C1=O [Ex162]", "≥ 10 µM"),
    ("O=C1/C(=C/c2cc(C(F)(F)F)c(O)cc2Br)Sc2ncccc21 [ExB17]", "≤ 0.5 µM"),
    ("CN1C(=O)S/C(=C\\c2cc(OCc3cnc(Nc4ccccn4)nc3)c(O)cc2Br)C1=O [Ex83]", "0.5 to 10 µM"),
    ("COc1cc(/C=C2\\Sc3ncc(F)cc3C2=O)c(Br)cc1O [Ex48]", "≤ 0.5 µM"),
    ("O=C1/C(=C/c2cc(CC(F)(F)F)c(O)cc2Br)Sc2ncccc21 [ExB21]", "≤ 0.5 µM"),
]

Batch request: IC50 for each of the following compounds.
1. COc1cc(/C=C2\SC(=S)N(C)C2=O)c(Br)cc1O [Ex38]
2. CN1C(=O)S/C(=C\c2cc(OCc3cnc(Nc4cccnc4)nc3)c(O)cc2Br)C1=O [Ex159]
3. CC(C)Nc1ncc(COc2cc(/C=C3\SC(=O)N(C)C3=O)c(Br)cc2O)cn1 [Ex150]
4. CC(Cc1cnc(N)nc1)Oc1cc(/C=C2\SC(=O)N(C)C2=O)c(Br)c(F)c1O (stereo not shown) [ExB9]
5. CN1C(=O)S/C(=C\c2cc(OCc3cnc(NC4CC4)nc3)c(O)cc2Br)C1=O [Ex149]
6. COc1cc(/C=c2\sc3n(c2=O)CCCN=3)c(Br)cc1O [Ex42]
7. CC(Oc1cc(/C=C2\SC(=O)N(C)C2=O)c(Br)c(F)c1O)c1cncnc1N (stereo not shown) [ExA18]

1. ≤ 0.5 µM
2. 0.5 to 10 µM
3. 0.5 to 10 µM
4. 0.5 to 10 µM
5. 0.5 to 10 µM
6. 0.5 to 10 µM
7. 0.5 to 10 µM

Batch request: IC50 for each of the following compounds.
1. O=C1/C(=C/c2cc(OC(F)(F)F)c(O)cc2Br)Sc2ncccc21 [Ex70]
2. CN1C(=O)S/C(=C\c2cc(OCc3cnc4ccccc4c3)c(O)cc2Br)C1=O [Ex177]

0.5 to 10 µM
0.5 to 10 µM

Batch request: IC50 for each of the following compounds.
1. O=C1NC(=O)/C(=C/c2c[nH]cn2)S1 [Ex6]
2. CN1C(=O)S/C(=C\c2cc(OCc3ccncc3)c(O)cc2Br)C1=O [Ex53]
3. CN1C(=O)S/C(=C\c2cc(OCC3CCCCC3)c(O)cc2Br)C1=O [Ex86]
4. CN1C(=O)S/C(=C\c2cc(OCc3cnc(NCCO)nc3)c(O)c(F)c2Br)C1=O [Ex152]
5. O=C1/C(=C/c2cc3oc(=O)[nH]c3cc2Br)Sc2ncccc21 [Ex26]

["≥ 10 µM", "0.5 to 10 µM", "0.5 to 10 µM", "≤ 0.5 µM", "0.5 to 10 µM"]

====

Task for the reader: assign each of the following compounds its reported IC50.
assayed system: recombinant cGAS (aa147-522) (Homo sapiens, UniProt Q8N884)
Construct: recombinant cGAS (aa147-522); His6-SUMO (N, cleaved yes); made in house; host or cells: E. coli BL21/pLys
test summary: In vitro assay for inhibition of cGAS activity (ATP consumption, Kinase Glo)
Format: biochemical
setup conditions: 37° C. 20 minutes, read-out: Activity (Inhibition of cGAS enzyme activity in vitro, IC50)

Worked set:
# compound, assayed system, IC50
rows = [
    ("CNc1ncc(C(C)Oc2cc(/C=C3\\SC(=O)N(C)C3=O)c(Br)cc2O)cn1 (stereo not shown)", "recombinant cGAS (aa147-522) (Homo sapiens, UniProt Q8N884)", "500 to 10000 nM"),
    ("CN1C(=O)S/C(=C\\c2cc(OCc3cccnc3)c(O)cc2Br)C1=O", "recombinant cGAS (aa147-522) (Homo sapiens, UniProt Q8N884)", "≤ 500 nM"),
    ("CN1C(=O)S/C(=C\\c2cc(OCc3cncnc3N)c(O)cc2Br)C1=O", "recombinant cGAS (aa147-522) (Homo sapiens, UniProt Q8N884)", "≤ 500 nM"),
]

Read the next record carefully.
Identify IC50 associated with the compound `CN1C(=O)S/C(=C\c2cc(OCc3cnc(NCc4cccnc4)nc3)c(O)cc2Br)C1=O` ≤ 500 nM

====

assayed system: recombinant cGAS (aa147-522) (Homo sapiens, UniProt Q8N884)
Construct: recombinant cGAS (aa147-522); His6-SUMO (N, cleaved yes)
test summary: In vitro assay for inhibition of cGAS activity (ATP consumption, Kinase Glo)
setup conditions: 37° C. 20 minutes, read-out: Activity (Inhibition of cGAS enzyme activity in vitro, IC50)
endpoint label: IC50

Worked set:
# molecule, IC50
rows = [
    ("CC(Oc1cc(/C=C2\\SC(=O)N(C)C2=O)c(Br)cc1O)c1cncnc1N (stereo not shown)", "≤ 0.5 µM"),
    ("COc1cc(/C=C2\\SC(=O)N(C)C2=O)c(Br)cc1NS(C)(=O)=O", "≥ 10 µM"),
    ("CN1C(=O)S/C(=C\\c2cc(OCC3CCN(C(=O)c4cccnc4)CC3)c(O)cc2Br)C1=O", "0.5 to 10 µM"),
    ("C/N=C1/S/C(=C\\c2cc(OC)c(O)cc2Br)C(=O)N1C", "≥ 10 µM"),
    ("CC(Oc1cc(/C=C2\\SC(=O)N(C)C2=O)c(Br)c(F)c1O)C(O)c1cncnc1N (stereo not shown)", "≤ 0.5 µM"),
]

Batch request: IC50 for each of the following molecules.
1. COc1ncc(COc2cc(/C=C3\SC(=O)N(C)C3=O)c(Br)cc2O)cn1
2. Cc1nc2c(Oc3cc(/C=C4\SC(=O)N(C)C4=O)c(Br)cc3O)cccc2o1
3. CNc1ncc(COc2cc(/C=C3\Sc4ncccc4C3=O)c(Br)c(F)c2O)cn1

1: 0.5 to 10 µM; 2: 0.5 to 10 µM; 3: ≤ 0.5 µM

====

assayed system: recombinant cGAS (aa147-522) (Homo sapiens)
Construct: recombinant cGAS (aa147-522); His6-SUMO (N, cleaved yes)
test summary: In vitro assay for inhibition of cGAS activity (ATP consumption, Kinase Glo)
setup conditions: 37° C. 20 minutes, read-out: Activity (Inhibition of cGAS enzyme activity in vitro, IC50)
pIC50: −log10 of the molar value.
endpoint label: pIC50

Worked set:
# compound, pIC50
data = [
    ("COc1cc(/C=C2\\SC(=O)N(C)C2=O)c(Br)cc1Oc1cnc(NCc2ccncc2)s1", "5.00 to 6.30"),
    ("C#Cc1cc(O)c(OC)cc1/C=C1\\SC(=O)N(C)C1=O", "≤ 5.00"),
]

Batch request: pIC50 for each of the following compounds.
1. Cc1ncc(COc2cc(/C=C3\SC(=O)N(C)C3=O)c(Br)c(F)c2O)c(N)n1
2. CN1C(=O)S/C(=C\c2cc(OCc3cnc(N)nc3C3CC3)c(O)c(F)c2Br)C1=O
3. CC(Oc1cc(/C=c2\sc3nccn3c2=O)c(Br)c(F)c1O)c1cnc(N)nc1 (stereo not shown)
4. O=C1NC(=O)/C(=C/c2ccncc2)S1 [Ex2]
5. C#CCOc1cc(/C=C2\SC(=O)N(C)C2=O)c(Br)cc1O
6. CN1C(=O)S/C(=C\c2cc(OCc3cccc4[nH]ccc34)c(O)cc2Br)C1=O
7. CN1C(=O)S/C(=C\c2cc(OCc3ccnc(N)c3)c(O)cc2Br)C1=O
8. CN1C(=O)S/C(=C\c2cc(OC(F)(F)F)c(Oc3cnc(N)s3)cc2Br)C1=O

1: ≥ 6.30; 2: 5.00 to 6.30; 3: 5.00 to 6.30; 4: ≤ 5.00; 5: 5.00 to 6.30; 6: 5.00 to 6.30; 7: 5.00 to 6.30; 8: ≤ 5.00

Batch request: pIC50 for each of the following compounds.
1. CN1C(=O)S/C(=C\c2cc(OCc3cnc(NCc4ccccn4)nc3)c(O)cc2Br)C1=O
2. CC(=O)c1cc(/C=C2\SC(=O)N(C)C2=O)c(Br)cc1O

1: ≥ 6.30; 2: 5.00 to 6.30

# assay system recombinant cGAS (aa147-522) (Homo sapiens): give pIC50 of `CSc1ccc(CCc2cc(/C=C3\SC(=O)N(C)C3=O)c(Br)cc2O)cc1` 5.00 to 6.30
